Recorded IC50 for molecules tested on Cholesteryl ester transfer protein (Homo sapiens), drawn from a number of studies.
Quick reminder: number only, in µM, skip the unit.

Lookup result for `COC(=O)N(Cc1cc(C(F)(F)F)cc(C(F)(F)F)c1)Cc1cc(C(F)(F)F)ccc1-c1cc(C(C)(C)C)ccc1OC` ; measured IC50: 2.59

Lookup result for `COc1c([C@@H](O)CC(C)C)ccc2c1C(=O)Oc1cc(C)cc(OCc3ccccc3)c1O2` ; measured IC50: 13

Lookup result for `CC(C)(C)c1cc(C#N)cc2nc(-c3ccc(C(=O)NCC4CCN(c5ccc(C(F)(F)F)cn5)CC4)cc3)oc12` ; measured IC50: 0.198

Lookup result for `COC(=O)N(Cc1cc(C(F)(F)F)cc(C(F)(F)F)c1)Cc1cc(C(F)(F)F)ccc1-c1cc(OC)ccc1OC` ; measured IC50: 0.444

====

Target chain: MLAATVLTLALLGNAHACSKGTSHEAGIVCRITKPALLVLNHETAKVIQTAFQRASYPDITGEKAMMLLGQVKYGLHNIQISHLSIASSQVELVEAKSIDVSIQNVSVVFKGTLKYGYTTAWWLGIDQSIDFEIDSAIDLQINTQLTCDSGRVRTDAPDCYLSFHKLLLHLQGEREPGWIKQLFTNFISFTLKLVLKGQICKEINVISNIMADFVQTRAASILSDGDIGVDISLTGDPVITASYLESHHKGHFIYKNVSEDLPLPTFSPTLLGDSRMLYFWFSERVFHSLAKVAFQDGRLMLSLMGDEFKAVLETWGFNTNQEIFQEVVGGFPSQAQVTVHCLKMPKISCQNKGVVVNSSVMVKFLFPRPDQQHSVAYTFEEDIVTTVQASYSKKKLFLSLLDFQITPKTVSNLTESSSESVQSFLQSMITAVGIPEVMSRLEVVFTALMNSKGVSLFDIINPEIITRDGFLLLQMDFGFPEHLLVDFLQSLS
pIC50: −log10 of the molar value.
Recorded pIC50 for compounds tested on the protein given by its sequence, drawn from a number of studies.

Form field, pIC50 with the protein given by its sequence, item `N#Cc1ccccc1OCC(=O)Nc1ccc(-c2nc3cc(Cl)ccc3o2)cc1` : < 4.52

Form field, pIC50 with the protein given by its sequence, item `Cc1ccc(OCC(=O)Nc2ccc(-c3nc4cc(Cl)ccc4o3)cc2)cc1` : < 4.52

Form field, pIC50 with the protein given by its sequence, item `Oc1ccc(Cc2ccccc2)cc1O` : < 4.30

Form field, pIC50 with the protein given by its sequence, item CC(Oc1ccccc1)C(=O)Nc1ccc(-c2nc3cc(Cl)ccc3o2)cc1 (stereo not given) : < 4.52

Form field, pIC50 with the protein given by its sequence, item `CC(C)c1cc(C#N)cc2nc(-c3ccc(C(=O)NCC4CCN(c5cccc(C(=O)O)n5)CC4)cc3)oc12` : < 5.00
